Overview of reported inhibition across a group of compounds:
system: FAAH; test: competitive ABPP of pPAFAH versus proteome hydrolases – biochemical, gel-based, FP-Rh fluorescence, complex proteome, SAR compounds, selectivity assay for pPAFAH inhibitor project, SAR follow-up (AID 588774); settings: at 10 µM, hits give high values;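 also: 0% = DMSO-only band intensity and 100% = blank gel background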
Give the value in % but do not write % after it.

The examples below pair each entry with its known result.
Cc1cc(N2CCN(C(=O)Oc3noc4cc(Cl)ccc34)CC2)c2ccccc2n1 :: 100
Cc1cc(N2CCN(C(=O)Oc3ccc(C4CCCC4)cc3)CC2)c2ccccc2n1 :: 0

Exercise: Data request, read-out inhibition, for Cc1cc(N2CCN(C(=O)n3oc4cc(Cl)ccc4c3=O)CC2)c2ccccc2n1
Solution: 99

Exercise: Queued: Cc1cc(N2CCN(C(=O)n3ncc(-c4ccc([N+](=O)[O-])cc4)n3)CC2)c2ccccc2n1
Solution: 87

Exercise: Queued: Cc1cc(N2CCN(C(=O)n3ncc(-c4ccccc4)n3)CC2)c2ccccc2n1
Solution: 83

Exercise: Queued: Cc1cc(N2CCN(C(=O)Oc3ccc(-n4cccc4)cc3)CC2)c2ccccc2n1
Solution: 0

Exercise: Queued: Cc1cc(N2CCN(C(=O)Oc3ccc([N+](=O)[O-])cc3)CC2)c2ccccc2n1
Solution: 71

Exercise: Queued: Cc1cc(N2CCN(C(=O)n3ncc(-c4ccc(OC(F)(F)F)cc4)n3)CC2)c2ccccc2n1
Solution: 92
